// data source = patent US20090311217A1

biological target: human TOR (Homo sapiens); construct: FLAG; experiment: mTOR enzyme assay (DELFIA, His6-S6K substrate); type: biochemical; settings: read-out: mTOR Kinase Avg. IC50
pIC50: −log10 of the molar value.
Label Met when pIC50 >= 6; otherwise Not met.

[
  {
    "MOLECULE": "N#CCCCn1cc(C=C2Oc3cc(O)cc(O)c3C2=O)c2c(C#N)cccc21",
    "GROUP": "Not met"
  }
]

Next, consider the following molecule.
Dear colleague, could you confirm whether Cn1c(-c2ccsc2)c(C=C2Oc3cc(O)cc(O)c3C2=O)c2ccccc21 has pIC50 at or above 6?
Met
